Data provenance is ChEMBL document CHEMBL4261646.

Assay: Dual competitive-inhibition of fructose-bisphosphate aldolase (unknown origin) using FBP as substrate and […] in presence of constant enzyme concentration by UV-Vis spectrophotometry dependent TIM/GDH coupled assay based double-reciprocal plot analysis
Design: species or system Homo sapiens
Quantity measured: Ki (µM)
The answer is to be given in µM; state only the numeric part.

# input If you can, please state the reported Ki value of O=P(O)(O)C(c1ccc2cc(O)ccc2c1)P(=O)(O)O .
# output 13

====

Assay: Inhibition of fructose-bisphosphate aldolase (unknown origin) using FBP as substrate and NADH preincubated for 90 mins followed by substrate addition by UV-Vis spectrophotometry based TIM/GDH coupled assay
Design: species or system Homo sapiens
Quantity measured: IC50 (nM)
The answer is to be given in nM; state only the numeric part.

# input If you can, please state the reported IC50 value of O=P([O-])([O-])Oc1ccc2cc(C(P(=O)([O-])[O-])P(=O)([O-])[O-])ccc2c1.[Li+].[Li+].[Li+].[Li+].[Li+].[Li+] .
# output 60

====

Assay: Inhibition of fructose-bisphosphate aldolase (unknown origin) using FBP as substrate and NADH preincubated for 10 mins followed by substrate addition by UV-Vis spectrophotometry based TIM/GDH coupled assay
Set-up: species or system Homo sapiens
Quantity measured: pIC50
On this scale, pIC50 is minus log10 of a concentration expressed in M (mol/L).

# input If you can, please state the reported pIC50 value of O=P([O-])([O-])Oc1ccc2cc(C(P(=O)([O-])[O-])P(=O)([O-])[O-])ccc2c1.[Li+].[Li+].[Li+].[Li+].[Li+].[Li+] .
# output 6.77

====

Assay: Slow binding inhibition of fructose-bisphosphate aldolase (unknown origin) assessed as dibasic species population adjusted dissociation constant using FBP as substrate and NADH by UV-Vis spectrophotometry dependent TIM/GDH coupled assay based Dixon plot analysis
Design: species or system Homo sapiens
Conditions: read-out: Ki(app)
Quantity measured: pKi
On this scale, pKi is minus log10 of a concentration expressed in M (mol/L).

# input If you can, please state the reported pKi value of O=P([O-])([O-])Oc1ccc2cc(C(P(=O)([O-])[O-])P(=O)([O-])[O-])ccc2c1.[Li+].[Li+].[Li+].[Li+].[Li+].[Li+] .
# output 7.25

====

Assay: Dual competitive-inhibition of fructose-bisphosphate aldolase (unknown origin) assessed as inhibition constant for two competitive binding sites in enzyme active site using FBP as substrate and […] in presence of constant enzyme concentration by UV-Vis spectrophotometry dependent TIM/GDH coupled assay based double-reciprocal plot analysis
Design: species or system Homo sapiens
Quantity measured: Ki (µM)
The answer is to be given in µM; state only the numeric part.

# input If you can, please state the reported Ki value of O=P(O)(O)C(c1ccc2cc(O)ccc2c1)P(=O)(O)O .
# output 9

====

Assay: Slow binding inhibition of fructose-bisphosphate aldolase (unknown origin) assessed as dissociation constant using FBP as substrate and NADH by UV-Vis spectrophotometry dependent TIM/GDH coupled assay based Dixon plot analysis
Parameters: species or system Homo sapiens
Quantity measured: pKi
On this scale, pKi is minus log10 of a concentration expressed in M (mol/L).

# input If you can, please state the reported pKi value of O=P([O-])([O-])Oc1ccc2cc(C(P(=O)([O-])[O-])P(=O)([O-])[O-])ccc2c1.[Li+].[Li+].[Li+].[Li+].[Li+].[Li+] .
# output 6.55
